Values compiled from ChEMBL document CHEMBL3576858.

tested on: Plasmodium falciparum; experiment: Antiplasmodial activity against Plasmodium falciparum 3D7 infected in O positive erythrocytes assessed as inhibition of parasite growth at 10 uM by FACS-based assay; format: functional
OBSERVED_PROPERTY: inhibition at 10 µM (%)
// units = %; emit number, no label

These solved cases illustrate the format of a correct answer.
Reported inhibition at 10 µM for C[C@]12CCC(=O)N1[C@H](CO)Cc1ccccc12 was 5.67

Reported inhibition at 10 µM for CN(C)C[C@@H]1Cc2ccccc2[C@@]2(C)C[C@]3(C(=O)Nc4ccccc43)C(=O)N12 was 30.1

Reported inhibition at 10 µM for CCOC(=O)C1C[C@]2(C)c3ccccc3C[C@@H](CN(C)C)N2C1=O (stereo partly drawn) was 7.19

Reported inhibition at 10 µM for C[C@]12CC3(CC=CC3)C(=O)N1[C@H](CO)Cc1ccccc12 was 1.8

Others:
Reported inhibition at 10 µM for CN(C)C[C@@H]1Cc2ccccc2[C@@]2(C)C[C@]3(C(=O)Nc4cc(N)ccc43)C(=O)N12 was 6.54

Reported inhibition at 10 µM for COC(=O)C1(C(C[N+](=O)[O-])c2ccccc2)C[C@]2(C)c3ccccc3C[C@@H](CO)N2C1=O (mixture of isomers) was 1.21

Reported inhibition at 10 µM for C=CCC1(CC=C)C[C@]2(C)c3ccccc3C[C@@H](CO)N2C1=O was 2.27

Reported inhibition at 10 µM for CCOC(=O)[C@]1(c2ccc([N+](=O)[O-])cc2[N+](=O)[O-])C[C@]2(C)c3ccccc3C[C@@H](CN(C)C)N2C1=O was 71.6

Reported inhibition at 10 µM for C[C@]12CC3(CCCC3)C(=O)N1[C@H](CO)Cc1ccccc12 was 0.971

Reported inhibition at 10 µM for CN(C)C[C@@H]1Cc2ccccc2[C@@]2(C)CCC(=O)N12 was 1.92

Reported inhibition at 10 µM for CN(C)C[C@@H]1Cc2ccccc2[C@@]2(C)C[C@@]3(C(=O)Nc4cc(N)ccc43)C(=O)N12 was 5.38

Reported inhibition at 10 µM for CCOC(=O)[C@@]1(c2ccc([N+](=O)[O-])cc2[N+](=O)[O-])C[C@]2(C)c3ccccc3C[C@@H](CN(C)C)N2C1=O was 0.385

Reported inhibition at 10 µM for CN(C)C[C@@H]1Cc2ccccc2[C@@]2(C)C[C@@]3(C(=O)Nc4ccccc43)C(=O)N12 was 14.8

====

system: Plasmodium falciparum; experiment: Antiplasmodial activity against Plasmodium falciparum 3D7 infected in O positive erythrocytes assessed as inhibition of parasite growth at 20 uM by FACS-based assay; type: functional
// values below are reported inhibition at 20 µM
// units = %; emit number, no label

These solved cases illustrate the format of a correct answer.
Reported inhibition at 20 µM for CN(C)C[C@@H]1Cc2ccccc2[C@@]2(C)C[C@]3(C(=O)Nc4cc(N)ccc43)C(=O)N12 was 34.6

Reported inhibition at 20 µM for CCOC(=O)[C@]1(c2ccc([N+](=O)[O-])cc2[N+](=O)[O-])C[C@]2(C)c3ccccc3C[C@@H](CN(C)C)N2C1=O was 21.1

Reported inhibition at 20 µM for CN(C)C[C@@H]1Cc2ccccc2[C@@]2(C)C[C@]3(C(=O)Nc4ccccc43)C(=O)N12 was 44.2

Reported inhibition at 20 µM for CN(C)C[C@@H]1Cc2ccccc2[C@@]2(C)C[C@@]3(C(=O)Nc4ccccc43)C(=O)N12 was 37

Would you kindly look at the next entry?
Reported inhibition at 20 µM for CCOC(=O)[C@@]1(c2ccc([N+](=O)[O-])cc2[N+](=O)[O-])C[C@]2(C)c3ccccc3C[C@@H](CN(C)C)N2C1=O was 48.1
